# PROTOCOL DETAILS: in vitro
# TEST PARAMETERS: both, human, plasma
Starred links: 1 amine or outer side, 2 acyl side, 3 side chain; linkers in the order of their positions; H or OH if unused. Non-standard residues stand in square brackets, D forms with d. Residues, ends and D or L forms follow the SMILES beside them. X1 = CC(C)C[C@H](NC(=S)[C@H](Cc1ccc(O)cc1)N[*:1])C(=O)[*:2]; X6 = O=C([C@H](Cc1ccc(O)cc1)NC(=S)[C@H]1CCCN1[*:1])[*:2]; dNMeL = CN[C@H](CC(C)C)C(=O)O
MEASURED PROPERTY: remaining at 72 h (%)

CC(C)C[C@@H]1NC(=O)[C@@H](CC(C)C)N(C)C(=O)[C@H](CC(C)C)NC(=O)[C@H](Cc2ccc(O)cc2)NC(=O)[C@H]2CCCN2C(=O)[C@H](CC(C)C)NC1=O [10g] (cyclo(LL[dP]YL[dNMeL]))    13

[A] CC(C)C[C@@H]1NC(=O)[C@@H](CC(C)C)NC(=O)[C@H](CC(C)C)NC(=S)[C@H](Cc2ccc(O)cc2)NC(=O)[C@H]2CCCN2C(=O)[C@H](CC(C)C)NC1=O [10e] (cyclo(LL[dP][X1][dL]))
[B] CC(C)C[C@@H]1NC(=O)[C@H](Cc2ccc(O)cc2)NC(=S)[C@H]2CCCN2C(=O)[C@H](CC(C)C)NC(=O)[C@H](CC(C)C)NC(=O)[C@@H](CC(C)C)NC1=O [10d] (cyclo(LL[X6]L[dL]))
Request: Select one: A or B . Criterion: greater recorded remaining at 72 h. Give the chosen item's label as your response.
Result: B

---

# ASSAYED TARGET: pepsin (Sus scrofa)
# Sequence (P00791 60-385): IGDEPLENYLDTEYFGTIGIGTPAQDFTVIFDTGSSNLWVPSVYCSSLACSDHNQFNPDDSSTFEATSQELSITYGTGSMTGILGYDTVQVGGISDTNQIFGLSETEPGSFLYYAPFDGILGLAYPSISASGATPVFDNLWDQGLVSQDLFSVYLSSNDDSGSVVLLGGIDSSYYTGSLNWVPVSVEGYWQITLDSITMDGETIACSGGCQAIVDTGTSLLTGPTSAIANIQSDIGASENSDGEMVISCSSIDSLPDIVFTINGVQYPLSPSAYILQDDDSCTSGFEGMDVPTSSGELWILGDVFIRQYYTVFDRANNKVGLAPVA
# PROTOCOL DETAILS: in vitro
# TEST PARAMETERS: simulated gastric fluid, pH 1.2
Starred links: 1 amine or outer side, 2 acyl side, 3 side chain; linkers in the order of their positions; H or OH if unused. Non-standard residues stand in square brackets, D forms with d. Residues, ends and D or L forms follow the SMILES beside them. X2 = CC(C)C[C@H](NC(=S)[C@@H](CC(C)C)N[*:1])C(=O)[*:2]; NMeY = CN[C@@H](Cc1ccc(O)cc1)C(=O)O; NMeL = CN[C@@H](CC(C)C)C(=O)O
MEASURED PROPERTY: remaining at 2 h (%)

CC(C)C[C@@H]1NC(=O)[C@@H](CC(C)C)NC(=O)[C@H](CC(C)C)N(C)C(=O)[C@H](Cc2ccc(O)cc2)NC(=O)[C@H]2CCCN2C(=O)[C@H](CC(C)C)NC1=O [10k] (cyclo(LL[dP]Y[NMeL][dL]))    46

[P] CC(C)C[C@@H]1NC(=O)[C@H](Cc2ccc(O)cc2)NC(=O)[C@H]2CCCN2C(=O)[C@H](CC(C)C)NC(=O)[C@H](CC(C)C)NC(=S)[C@@H](CC(C)C)NC1=O [10a] (cyclo(L[dP]YL[X2]))
[Q] CC(C)C[C@@H]1NC(=O)[C@@H](CC(C)C)NC(=O)[C@H](CC(C)C)NC(=O)[C@H](Cc2ccc(O)cc2)N(C)C(=O)[C@H]2CCCN2C(=O)[C@H](CC(C)C)NC1=O [10j] (cyclo(LL[dP][NMeY]L[dL]))
[R] CC(C)C[C@@H]1NC(=O)[C@H](Cc2ccc(O)cc2)NC(=O)[C@H]2CCCN2C(=O)[C@H](CC(C)C)N(C)C(=O)[C@H](CC(C)C)NC(=O)[C@@H](CC(C)C)NC1=O [10i] (cyclo(L[NMeL][dP]YL[dL]))
Request: Ranking field: remaining at 2 h; order: falling. Rank the items, then write their labels in that order.
Result: P, R, Q
(P: 34%, R: 11%, Q: 1%)

---

# PROTOCOL DETAILS: in vitro
# TEST PARAMETERS: human, microsomes
Starred links: 1 amine or outer side, 2 acyl side, 3 side chain; linkers in the order of their positions; H or OH if unused. Non-standard residues stand in square brackets, D forms with d. Residues, ends and D or L forms follow the SMILES beside them. X1 = CC(C)C[C@H](NC(=S)[C@H](Cc1ccc(O)cc1)N[*:1])C(=O)[*:2]; X6 = O=C([C@H](Cc1ccc(O)cc1)NC(=S)[C@H]1CCCN1[*:1])[*:2]; X2 = CC(C)C[C@H](NC(=S)[C@@H](CC(C)C)N[*:1])C(=O)[*:2]; X3 = CC(C)C[C@H](N[*:1])C(=S)N[C@H](CC(C)C)C(=O)[*:2]; X5 = CC(C)C[C@H](NC(=S)[C@H](CC(C)C)N[*:1])C(=O)[*:2]; NMeY = CN[C@@H](Cc1ccc(O)cc1)C(=O)O; NMeL = CN[C@@H](CC(C)C)C(=O)O; dNMeL = CN[C@H](CC(C)C)C(=O)O
MEASURED PROPERTY: remaining at 1 h (%)

CC(C)C[C@@H]1NC(=O)[C@@H](CC(C)C)N(C)C(=O)[C@H](CC(C)C)NC(=O)[C@H](Cc2ccc(O)cc2)NC(=O)[C@H]2CCCN2C(=O)[C@H](CC(C)C)NC1=O [10g] (cyclo(LL[dP]YL[dNMeL]))    8
CC(C)C[C@@H]1NC(=O)[C@H](Cc2ccc(O)cc2)NC(=O)[C@H]2CCCN2C(=O)[C@H](CC(C)C)NC(=O)[C@H](CC(C)C)N(C)C(=O)[C@@H](CC(C)C)NC1=O [10h] (cyclo(L[dL][NMeL]L[dP]Y))    13
CC(C)C[C@@H]1NC(=O)[C@H](Cc2ccc(O)cc2)NC(=O)[C@H]2CCCN2C(=O)[C@H](CC(C)C)NC(=S)[C@H](CC(C)C)NC(=O)[C@@H](CC(C)C)NC1=O [10b] (cyclo(L[dL][X5][dP]Y))    15
CC(C)C[C@@H]1NC(=O)[C@H](Cc2ccc(O)cc2)NC(=O)[C@H]2CCCN2C(=O)[C@H](CC(C)C)NC(=O)[C@H](CC(C)C)NC(=S)[C@@H](CC(C)C)NC1=O [10a] (cyclo(L[dP]YL[X2]))    44
CC(C)C[C@@H]1NC(=O)[C@H](Cc2ccc(O)cc2)NC(=O)[C@H]2CCCN2C(=O)[C@H](CC(C)C)NC(=O)[C@H](CC(C)C)NC(=O)[C@@H](CC(C)C)NC1=O [compound 10, cyclo(-D-Leu^1-Leu-Leu-D-Pro-Tyr-Leu^6-)] (cyclo(LL[dP]YL[dL]))    14

[a] CC(C)C[C@@H]1NC(=O)[C@@H](CC(C)C)NC(=S)[C@H](CC(C)C)NC(=O)[C@H](Cc2ccc(O)cc2)NC(=O)[C@H]2CCCN2C(=O)[C@H](CC(C)C)NC1=O [10f] (cyclo(LL[dP]Y[X3]))
[b] CC(C)C[C@@H]1NC(=O)[C@H](Cc2ccc(O)cc2)NC(=S)[C@H]2CCCN2C(=O)[C@H](CC(C)C)NC(=O)[C@H](CC(C)C)NC(=O)[C@@H](CC(C)C)NC1=O [10d] (cyclo(LL[X6]L[dL]))
Request: Dear colleague, could you let me know whether a or b has the lower recorded remaining at 1 h? Thanks. Give the chosen item's label as your response.
Result: b
(b: 20%, a: 38%)

[a] CC(C)C[C@@H]1NC(=O)[C@@H](CC(C)C)NC(=O)[C@H](CC(C)C)NC(=O)[C@H](Cc2ccc(O)cc2)N(C)C(=O)[C@H]2CCCN2C(=O)[C@H](CC(C)C)NC1=O [10j] (cyclo(LL[dP][NMeY]L[dL]))
[b] CC(C)C[C@@H]1NC(=O)[C@@H](CC(C)C)NC(=O)[C@H](CC(C)C)NC(=S)[C@H](Cc2ccc(O)cc2)NC(=O)[C@H]2CCCN2C(=O)[C@H](CC(C)C)NC1=O [10e] (cyclo(LL[dP][X1][dL]))
Request: Dear colleague, could you let me know whether a or b has the lower recorded remaining at 1 h? Thanks. Give the chosen item's label as your response.
Result: a
(a: 9%, b: 27%)

---

# TEST PARAMETERS: rat, in vivo, po, 10 mg/kg
Starred links: 1 amine or outer side, 2 acyl side, 3 side chain; linkers in the order of their positions; H or OH if unused. Non-standard residues stand in square brackets, D forms with d. Residues, ends and D or L forms follow the SMILES beside them. X1 = CC(C)C[C@H](NC(=S)[C@H](Cc1ccc(O)cc1)N[*:1])C(=O)[*:2]; X2 = CC(C)C[C@H](NC(=S)[C@@H](CC(C)C)N[*:1])C(=O)[*:2]; X3 = CC(C)C[C@H](N[*:1])C(=S)N[C@H](CC(C)C)C(=O)[*:2]
MEASURED PROPERTY: time over which the peptide is detectable in plasma

Guide cases for time over which the peptide is detectable in plasma, answers given:
CC(C)C[C@@H]1NC(=O)[C@@H](CC(C)C)NC(=O)[C@H](CC(C)C)NC(=S)[C@H](Cc2ccc(O)cc2)NC(=O)[C@H]2CCCN2C(=O)[C@H](CC(C)C)NC1=O [10e] (cyclo(LL[dP][X1][dL]))    ≥ 8 h
CC(C)C[C@@H]1NC(=O)[C@@H](CC(C)C)NC(=S)[C@H](CC(C)C)NC(=O)[C@H](Cc2ccc(O)cc2)NC(=O)[C@H]2CCCN2C(=O)[C@H](CC(C)C)NC1=O [10f] (cyclo(LL[dP]Y[X3]))    ≥ 8 h
CC(C)C[C@@H]1NC(=O)[C@H](Cc2ccc(O)cc2)NC(=O)[C@H]2CCCN2C(=O)[C@H](CC(C)C)NC(=O)[C@H](CC(C)C)NC(=O)[C@@H](CC(C)C)NC1=O [compound 10, cyclo(-D-Leu^1-Leu-Leu-D-Pro-Tyr-Leu^6-)] (cyclo(LL[dP]YL[dL]))    ≤ 1 h

Now consider the entry below.
Request: Name the recorded time over which the peptide is detectable in plasma for CC(C)C[C@@H]1NC(=O)[C@H](Cc2ccc(O)cc2)NC(=O)[C@H]2CCCN2C(=O)[C@H](CC(C)C)NC(=O)[C@H](CC(C)C)NC(=S)[C@@H](CC(C)C)NC1=O [10a] (cyclo(L[dP]YL[X2])) .
Result: ≥ 8 h
